Overview of reported soluble fraction (log2) across a group of sequences:
Assay: soluble fraction after stress (log2 fold change); higher = more stays soluble; pooled small domains, quantitative proteomics
Details: stress: 50 degC

# SEQUENCE_DATA, soluble fraction (log2)
records = [
    ("HMAVVAPLAGSVARVLVADGDEIEAGQVLLVLEAMKMETEITAPKAGKVGAILVGKGDSVQGGQGLR", -0.051),
    ("HMRPKVADIDYFDGKTFTIEDGSKHSITTSEAKKIYFYLVKNGYVDDESHVTDAYRSAATSGTLA", -0.0505),
    ("HMLTKAEEQVMDYLWKLEKAFVKDILDEFPEPKPAYTTVSTMVRILEKKGMVGYTAYGKNHQYYPL", -1.84),
    ("HMKNINTNIGKNLKRIRKLRGLTIDALATSSGVSKSMISEIERGIRNPSITIIWSLANALKTPLNYFLKE", -0.115),
    ("HMPSPSTLAKVDPFLLVTNADSLLMARPDDSELRAAIITAHINLAKTNNSVDHYKEVLKIEPQNALANYN", 0.0175),
    ("HMQMEDTDALLQVAKEVVAENQDTVEAYLGGREKAFASLIGAAMKKTRGKANPKVIRQLILDLIQ", 0.254),
    ("HMRGADNAASILKEVGPHPEDGKPITVRSGRYGPYVKHGTTNATLPKDIKPEEITLDEAIALINERVAKG", -0.243),
    ("HMQTGYHVRITASTLNVRRDHSASSAVATQVRRGEVYTIVDEYNNGGTLWGKLKSGAGWIALKYTQS", -1.81),
    ("HMENYIEQLTAKNSEYIHVVTRELVKIGKSDEEIKAILSDILPQIVAAQDQRVLAKDILGTPSEFTAKYAP", 0.173),
    ("HMHVYSYPAAVKIKNAVGREMMVTLLGRSGTHVQFARQDGEEFVYPISSLDLAAQTLISKYPNDGIKN", -0.444),
    ("HMGNAQELQKKLEGLKGISGIEKLESDHYAEKYLVRITQPVDHKNPAAGTFTQRVIVAHVGFDRPTILVT", 0.511),
    ("HMFTLDDLQATYDIFERAEQNSDAMLAFQKVITAEGLDFDLTSPQGIVDFFKGAAPTEIYDLYEAS", -0.403),
    ("HMGYGEQEQEAQKYLALHALMSQDPTLAKMYQAPNQYKLMSHVMEQNGIKNVNDYLTDPQQLP", -0.00068),
    ("HMVSDAELTSQATTAITAYPGTSVEVKEGQAHLSGTFATEADKQAAIDALKKIQDVKDVHDMATV", 0.123),
    ("HMSLIDYLNELMNEKNITVAQVAKNSGIGEYVYKIFNGERNAKRDTLVAISFGMHLNFEETQLLLRIA", -0.682),
    ("HMSISEADAKKIALEKVPGATDSNLRIKTDYDDGIMKYEVKIVYNEMKYEFDIDAATGTILEWESESVY", -0.659),
    ("HMGIIVDMSKIKQMLQLSEAGHSNRKIALELGINKETVNNYMQLIRNGRLDIRQLLKMDDPELERRFHA", -0.329),
]
